Hello, the source for this data is ChEMBL document CHEMBL1135778, in case you need it.

testedTarget: 5-hydroxytryptamine receptor 1A (Mus musculus)
assayRemarks: Antagonist activity at 5-hydroxytryptamine 1A receptor against (+)-8-OH-DPAT induced hypothermia in mice at 1 mg/kg after 60 min
Type: functional, organism-based
Set-up: dose 1 mg/kg
property: Change in body temperature (°C)

molecule: OC(CCN1CCN(c2cccc3cccnc23)CC1)c1csc2ccccc12 (stereo not given)
property: Change in body temperature
measuredResult: -1.09
//
molecule: OC(CCN1CCN(c2cccc3[nH]ccc23)CC1)c1csc2ccccc12 (stereo not given)
property: Change in body temperature
measuredResult: -1.13
//
molecule: OC(CCN1CCN(c2cccc3[nH]ccc23)CC1)c1csc2ccc(F)cc12 (stereo not given)
property: Change in body temperature
measuredResult: -2.72
//
molecule: OC(CCN1CCN(c2cccc3c2OCCO3)CC1)c1csc2ccccc12 (stereo not given)
property: Change in body temperature
measuredResult: -1.94
//
molecule: OC(CCN1CCN(c2cccc3c2OCCO3)CC1)c1csc2ccc(F)cc12 (stereo not given)
property: Change in body temperature
measuredResult: -1.04

---

testedTarget: 5-hydroxytryptamine receptor 1A (Rattus norvegicus)
assayRemarks: Antagonist activity to stimulate binding of [35S]GTP-gamma-S, to 5-hydroxytryptamine 1A receptor in isolated rat hippocampal membranes
Assay type: functional, cell membranes
experimentalParameters: Membrane, scale: (fM of GTP-gammaS bound)

molecule: OC(CCN1CCN(c2cccc3c2OCCO3)CC1)c1csc2ccc(F)cc12 (stereo not drawn)
Basal: 11.9
//
molecule: OC(CCN1CCN(c2cccc3[nH]ccc23)CC1)c1csc2ccc(F)cc12 (stereo not drawn)
Basal: 10.1
//
molecule: OC(CCN1CCN(c2cccc3[nH]ccc23)CC1)c1csc2ccccc12 (stereo not drawn)
Basal: 13.4
//
molecule: OC(CCN1CCN(c2cccc3cccnc23)CC1)c1csc2ccccc12 (stereo not drawn)
Basal: 11.9
//
molecule: CCCN(CCC)C1CCc2cccc(O)c2C1 (stereo not drawn)
Basal: 13.5
//
molecule: OC(CCN1CCN(c2cccc3c2OCCO3)CC1)c1csc2ccccc12 (stereo not drawn)
Basal: 15.6
//
molecule: OC(CCN1CCN(c2cccc3c2OCCCO3)CC1)c1csc2ccc(F)cc12 (stereo not drawn)
Basal: 14.4
//
molecule: OC(CCN1CCN(c2cccc3cccnc23)CC1)c1csc2ccc(F)cc12 (stereo not drawn)
Basal: 13.9

---

testedTarget: Sodium-dependent serotonin transporter (Rattus norvegicus)
Sequence (P31652 whole entry): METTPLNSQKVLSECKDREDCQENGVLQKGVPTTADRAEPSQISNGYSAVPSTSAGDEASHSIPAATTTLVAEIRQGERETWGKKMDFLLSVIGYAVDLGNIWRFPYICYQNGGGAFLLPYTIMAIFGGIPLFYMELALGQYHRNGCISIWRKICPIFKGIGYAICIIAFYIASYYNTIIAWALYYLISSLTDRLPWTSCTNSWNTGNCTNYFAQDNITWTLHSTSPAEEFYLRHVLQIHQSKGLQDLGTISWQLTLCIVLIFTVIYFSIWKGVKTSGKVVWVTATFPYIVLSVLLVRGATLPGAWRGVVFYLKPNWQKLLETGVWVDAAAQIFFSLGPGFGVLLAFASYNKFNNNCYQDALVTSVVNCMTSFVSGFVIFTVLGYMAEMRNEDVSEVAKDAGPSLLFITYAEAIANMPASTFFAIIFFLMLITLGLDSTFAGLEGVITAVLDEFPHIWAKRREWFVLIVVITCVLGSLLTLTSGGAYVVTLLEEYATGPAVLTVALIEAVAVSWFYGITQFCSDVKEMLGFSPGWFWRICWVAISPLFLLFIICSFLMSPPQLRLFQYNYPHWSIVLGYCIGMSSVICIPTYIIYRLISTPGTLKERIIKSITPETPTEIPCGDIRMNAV
pKi: −log10 of the molar value.
Outcome label depends on pKi relative to 8: at/above gives Yes, below gives No.

molecule: OC(CCN1CCN(c2cccc3c2OCCCO3)CC1)c1csc2ccc(F)cc12 (stereo not given)
classification: No
//
molecule: OC(CCN1CCN(c2cnc3ccccc3c2)CC1)c1csc2ccccc12 (stereo not given)
classification: Yes
//
molecule: OC(CCN1CCN(c2cccc3cccnc23)CC1)c1csc2ccccc12 (stereo not given)
classification: No

---

testedTarget: UniProt:P19327
assayRemarks: Binding affinity towards 5-hydroxytryptamine 1A receptor in rat frontal cortex homogenates
Format: tissue-based

compound: OC(CCN1CCN(c2cccc3c2OCCCO3)CC1)c1csc2ccccc12 (stereo unspecified)
testedTarget: UniProt:P19327
Ki: 1.9 nM

---

testedTarget: 5-hydroxytryptamine receptor 1A (Rattus norvegicus, UniProt P19327)
Sequence (P19327 whole entry): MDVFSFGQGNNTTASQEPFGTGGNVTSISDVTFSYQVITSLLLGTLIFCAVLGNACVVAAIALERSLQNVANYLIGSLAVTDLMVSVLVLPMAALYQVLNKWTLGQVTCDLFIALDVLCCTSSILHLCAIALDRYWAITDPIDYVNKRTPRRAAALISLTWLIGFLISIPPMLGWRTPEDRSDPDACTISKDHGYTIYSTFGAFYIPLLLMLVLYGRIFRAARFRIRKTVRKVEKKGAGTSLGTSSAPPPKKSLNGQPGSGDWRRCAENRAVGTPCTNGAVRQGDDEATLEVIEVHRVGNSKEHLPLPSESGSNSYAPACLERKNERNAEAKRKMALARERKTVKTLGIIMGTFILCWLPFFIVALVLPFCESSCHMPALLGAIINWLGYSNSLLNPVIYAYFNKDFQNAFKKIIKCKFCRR
assayRemarks: Binding affinity towards 5-hydroxytryptamine 1A receptor in rat frontal cortex homogenates
Format: tissue-based
experimentalParameters: read-out: Ki
pKi: −log10 of the molar value.
property: pKi

molecule: OC(CCN1CCN(c2cccc3ncccc23)CC1)c1csc2ccccc12 (stereo not drawn)
property: pKi
measuredResult: 7.43

molecule: OC(CCN1CCN(c2cccc3c2OCCO3)CC1)c1csc2ccccc12 (stereo not drawn)
property: pKi
measuredResult: 8.24

molecule: OC(CCN1CCN(c2cccc3c2OCO3)CC1)c1csc2ccc(F)cc12 (stereo not drawn)
property: pKi
measuredResult: 8.03

molecule: OC(CCN1CCN(c2cnc3ccccc3c2)CC1)c1csc2ccccc12 (stereo not drawn)
property: pKi
measuredResult: 6.00

molecule: OC(CCN1CCN(c2cccc3cccnc23)CC1)c1csc2ccccc12 (stereo not drawn)
property: pKi
measuredResult: 8.20

molecule: OC(CCN1CCN(c2ccc3sccc3c2)CC1)c1csc2ccccc12 (stereo not drawn)
property: pKi
measuredResult: 6.04

molecule: OC(CCN1CCN(c2cccc3ccccc23)CC1)c1csc2ccccc12 (stereo not drawn)
property: pKi
measuredResult: 7.18

molecule: OC(CCN1CCN(c2cccc3c2OCCCO3)CC1)c1csc2ccc(F)cc12 (stereo not drawn)
property: pKi
measuredResult: 8.52
